- Study target: T1, huCD46-His (human, UniProt P15529 35-343)
- T1 construct: extracellular domain; Immobilised by amine coupling on the SPR chip; It may be the same protein as the ELISA antigen; also called Human CD46-His; human CD46; not shown: His tag
- T1 sequence (looked up): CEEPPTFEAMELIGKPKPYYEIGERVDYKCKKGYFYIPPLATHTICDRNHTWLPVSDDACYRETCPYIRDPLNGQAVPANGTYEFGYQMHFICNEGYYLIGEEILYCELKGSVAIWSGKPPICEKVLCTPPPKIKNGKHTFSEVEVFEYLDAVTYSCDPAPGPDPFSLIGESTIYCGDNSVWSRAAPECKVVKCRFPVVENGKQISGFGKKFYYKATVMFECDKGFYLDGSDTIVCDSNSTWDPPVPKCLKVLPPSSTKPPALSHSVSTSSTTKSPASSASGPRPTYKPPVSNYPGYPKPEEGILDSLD
- Assay comment: SPR, huCD46-His immobilised, antibody as analyte, pH 6.0
Kindly supply the reported pKd values for the records listed here.
When answering, recall that pKd equals minus log10 of the concentration in mol/L, and write that number alone.

Ask: Can you look up the measured pKd of BA-133-04-03 (antibody, V domains shown, also called CPE hit BA133-04-03) VH: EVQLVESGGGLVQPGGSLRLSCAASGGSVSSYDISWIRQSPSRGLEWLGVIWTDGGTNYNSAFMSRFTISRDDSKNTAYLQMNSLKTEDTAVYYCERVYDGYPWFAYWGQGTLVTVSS VL: AIQLTQSPSSLSASVGDRVTITCRASQGISNYLNWYLQKPGQSPQLLIYYTSSLFSGVPDRFSGSGSGTDFTLKISRVEAEDVGVYYCQQYIKLPWTFGQGTKVEIK for me?
Reply: 8.82

Ask: Can you look up the measured pKd of BAP133-2-03-03-SL (antibody, V domains shown, the killing assays used the ADC form; also called BAP133-02-03-03-SL; CPE hit BAP133-2-03-03-SL) VH: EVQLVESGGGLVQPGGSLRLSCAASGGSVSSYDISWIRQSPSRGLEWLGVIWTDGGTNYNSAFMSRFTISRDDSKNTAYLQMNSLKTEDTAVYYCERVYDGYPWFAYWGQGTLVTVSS VL: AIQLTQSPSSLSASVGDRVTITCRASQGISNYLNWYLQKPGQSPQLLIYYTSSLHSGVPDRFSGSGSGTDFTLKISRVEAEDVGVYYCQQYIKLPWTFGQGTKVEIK for me?
Reply: 8.63

Ask: Can you look up the measured pKd of BA-133-04-04 (antibody, V domains shown, the killing assays used the ADC form; also called CPE hit BA133-04-04) VH: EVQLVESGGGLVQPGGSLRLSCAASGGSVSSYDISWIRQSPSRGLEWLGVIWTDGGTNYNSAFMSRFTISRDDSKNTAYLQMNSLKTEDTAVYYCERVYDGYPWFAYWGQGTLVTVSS VL: AIQLTQSPSSLSASVGDRVTITCRASQGISNYLNWYLQKPGQSPQLLIYYTSSLHEGVPDRFSGSGSGTDFTLKISRVEAEDVGVYYCQQYIKLPWTFGQGTKVEIK for me?
Reply: 8.60

Ask: Can you look up the measured pKd of BA-133-04-02 (antibody, V domains shown, also called CPE hit BA133-04-02) VH: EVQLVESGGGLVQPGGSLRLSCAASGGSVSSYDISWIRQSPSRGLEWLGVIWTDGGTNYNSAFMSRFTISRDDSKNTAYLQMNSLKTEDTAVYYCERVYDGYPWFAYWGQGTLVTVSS VL: AIQLTQSPSSLSASVGDRVTITCRASQGIANYLNWYLQKPGQSPQLLIYYTSSLHSGVPDRFSGSGSGTDFTLKISRVEAEDVGVYYCQQYIKLPWTFGQGTKVEIK for me?
Reply: 8.63

Ask: Can you look up the measured pKd of BA-133-04-01 (antibody, V domains shown, also called CPE hit BA133-04-01) VH: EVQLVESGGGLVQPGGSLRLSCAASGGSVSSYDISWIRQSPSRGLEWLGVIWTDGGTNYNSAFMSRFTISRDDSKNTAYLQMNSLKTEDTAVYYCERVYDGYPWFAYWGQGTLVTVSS VL: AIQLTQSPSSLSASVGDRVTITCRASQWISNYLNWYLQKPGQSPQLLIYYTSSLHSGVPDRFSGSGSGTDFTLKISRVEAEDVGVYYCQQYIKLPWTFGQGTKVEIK for me?
Reply: 9.00

Ask: Can you look up the measured pKd of BAP133-2-02-12 (antibody, V domains shown, also called BAP133-02-02-12; CPE hit BAP133-2-02-12) VH: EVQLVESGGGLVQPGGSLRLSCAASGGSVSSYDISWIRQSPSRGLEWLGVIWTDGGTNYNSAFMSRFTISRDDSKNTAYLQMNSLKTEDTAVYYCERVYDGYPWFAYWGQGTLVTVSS VL: AIQLTQSPSSLSASVGDRVTITCRALQGISNYLNWYQQKPGKAPKLLIYYTSSLHSGVPSRFSGSGSGTEFTLTISSLQPDDFATYYCQQYIKLPWTFGQGTKVEIK for me?
Reply: 8.12

Ask: Can you look up the measured pKd of Benchmark (BM) BA-133-00-01 (antibody, V domains shown, the killing assays used the ADC form; Conjugation site and payload are not described; also called BM (bench mark)) VH: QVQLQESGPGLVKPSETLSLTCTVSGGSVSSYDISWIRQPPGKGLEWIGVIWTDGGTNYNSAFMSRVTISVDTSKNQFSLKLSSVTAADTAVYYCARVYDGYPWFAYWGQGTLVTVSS VL: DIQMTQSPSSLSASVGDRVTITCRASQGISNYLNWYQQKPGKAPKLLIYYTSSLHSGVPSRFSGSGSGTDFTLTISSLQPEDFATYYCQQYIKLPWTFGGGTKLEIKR for me?
Reply: 8.63
